System: T-47D breast
assaySummary: NCI-60 one-dose screen, 48 h (100 = growth as untreated, 0 = no growth, -100 = all killed)
conditionsUsed: 10 µM unless noted
Protocol: Growth inhibition of the T-47D human tumor cell line is measured as a screen for anti-cancer activity. Cells are grown in 96 well plates and exposed to the test compound for 48 hours. Compounds are tested at a single concentration, which is 10^-5 M for most compounds. The reported endpoint is percent growth (GI% or GIPRCNT), where numbers from 0 - 100% represent growth inhibition, and numbers from -100% - 0 represent cell death. For example, a value of 40 represents 60% growth inhibition. […]
The panel holds about 83,000 compounds, 20% with a hit somewhere; the sample as a whole holds those more often.
readoutType: growth (%)
Numbers only, in %.

> print(dat)
                                   compound   assaytarget  numericreadout
1  Cc1cc(Cl)ccc1Nc1nc(C(F)(F)F)ccc1C(=O)NCC(=O)N/N=C/c1c(Cl)cccc1Cl  T-47D breast            51.9
2  O=C1CCCN1C1CCN(Cc2cc3ccccc3[nH]c2=O)c2ccccc21 (stereo not given)  T-47D breast            60.1
3                   NC(=O)N/N=C/c1ccc(Br)o1  T-47D breast            91.4
4     ClC1=C(Cl)C(Cl)=C(Cl)C1=Cc1ccc(Cl)cc1  T-47D breast            25.3
5  COc1ncc(-c2ccc3nccc(C#CCN4CCN(S(C)(=O)=O)CC4)c3c2)cc1NS(=O)(=O)c1ccc(F)cc1F  T-47D breast             3.5
6  O=[P@@]1(c2ccccc2)O[C@H](COCc2ccccc2)[C@@H](OCc2ccccc2)[C@H](OCc2ccccc2)[C@H]1NCc1ccccc1  T-47D breast            15.9
7       CCCCC(C#N)C(N)=O (stereo not given)  T-47D breast             100
8  Cn1cc(-c2csc(-c3cn(C)c4ncccc34)n2)c2cccnc21  T-47D breast             101
9  COc1cc(/C=C/C(=O)Nc2cccnc2Nc2cc(OC)c(OC)c(OC)c2)cc(OC)c1OC  T-47D breast             100

Read the next record carefully.
Return growth for the following compound: CCC(c1ccccc1)c1noc(CCN(CC)CC)n1 (stereo not given)
94.4
